Overview of reported pIC50 across a group of compounds:
test system: HL-60/TX1000 multi-drug resistant human myeloid leukemia cell line; assay: In vitro anti-cancer activity against MDR cell line HL-60/TX1000; type: cell-based; conditions: Homo sapiens, HL60/TX1000; HL-60/TX1000 cells, 72 hours, MTS
pIC50: −log10 of the molar value.
experimentalReadout: pIC50

- Cc1cc(NC(=O)C(=O)c2cn(Cc3ccc(Cl)cc3)c3ccccc23)sn1 [Compound (1)]: 8.00
- O=C(Nc1ccc2ncccc2c1)C(=O)c1cn(Cc2ccc(Cl)cc2)c2ccccc12 [Compound (5)]: 7.30
- NC(=O)c1ccc(NC(=O)C(=O)c2cn(Cc3ccc(Cl)cc3)c3ccccc23)nc1 [(4)]: 7.30
- Cc1cc(NC(=O)C(=O)c2cn(Cc3ccc(Cl)cc3)c3ccccc23)no1 [(10)]: 7.30
- CSc1nnc(NC(=O)C(=O)c2cn(Cc3ccc(Cl)cc3)c3ccccc23)[nH]1 [(6)]: 7.30
- O=C(Nc1ccon1)C(=O)c1cn(Cc2ccc(Cl)cc2)c2ccccc12 [(7)]: 7.30
- NC(=O)c1ccc(NC(=O)C(=O)c2cn(Cc3ccc(Cl)cc3)c3ccccc23)cc1 [Compound (3)]: 7.30
- Cc1cc(NC(=O)C(=O)c2cn(Cc3ccc(C#N)cc3)c3ccccc23)sn1 [Compound (2)]: 8.30
- N#Cc1ccc(Cn2cc(C(=O)C(=O)Nc3ccncc3)c3ccccc32)cc1 [(9)]: 7.30

---

test system: MES-SA/DX5 multi-drug resistant human uterine sarcoma cell line; assay: In vitro anti-cancer activity against MDR cell line MES-SA/DX5; assay type: cell-based; settings: Homo sapiens; MES-SA/DX5 cells, 72 hours, MTS
Measured IC50, listed per entry.
experimentalReadout: IC50 (µM)

• NC(=O)c1ccc(NC(=O)C(=O)c2cn(Cc3ccc(Cl)cc3)c3ccccc23)cc1 = 0.05
• O=C(Nc1ccc2ncccc2c1)C(=O)c1cn(Cc2ccc(Cl)cc2)c2ccccc12 = 0.05
• Cc1cc(NC(=O)C(=O)c2cn(Cc3ccc(C#N)cc3)c3ccccc23)sn1 = 0.005
• Cc1cc(NC(=O)C(=O)c2cn(Cc3ccc(Cl)cc3)c3ccccc23)no1 = 0.05
• N#Cc1ccc(Cn2cc(C(=O)C(=O)Nc3ccncc3)c3ccccc32)cc1 = 0.05
• O=C(Nc1ccon1)C(=O)c1cn(Cc2ccc(Cl)cc2)c2ccccc12 = 0.08
• NC(=O)c1ccc(NC(=O)C(=O)c2cn(Cc3ccc(Cl)cc3)c3ccccc23)nc1 = 0.05
• CSc1nnc(NC(=O)C(=O)c2cn(Cc3ccc(Cl)cc3)c3ccccc23)[nH]1 = 0.05
• Cc1cc(NC(=O)C(=O)c2cn(Cc3ccc(Cl)cc3)c3ccccc23)sn1 = 0.01
